# Tested on: NCI-H23
# procedure.details: Antitumor activity against human NCI-H23 cells assessed as cell growth at 0.1 uM
# Format: functional
# details: read-out: Activity
readout.kind: growth at 0.1 µM

# annotated cases, reported growth at 0.1 µM shown
{"test.smiles": "c1ccc(CSc2ncccc2-c2nnc(SCCN3CCOCC3)o2)cc1", "readout.kind": "growth at 0.1 µM", "measured.result": "104%"}
{"test.smiles": "Cc1cnc(NC(=O)CSc2nnc(-c3cccnc3SCc3ccccc3)o2)s1", "readout.kind": "growth at 0.1 µM", "measured.result": "80.6%"}
{"test.smiles": "CN1CCN(C(=O)CSc2nnc(-c3cccnc3SCc3ccccc3)o2)CC1", "readout.kind": "growth at 0.1 µM", "measured.result": "87.6%"}
{"test.smiles": "Cc1ccc2sc(-c3ccc(NC(=O)CSc4nnc(-c5cccnc5SCc5ccccc5)o4)cc3)nc2c1", "readout.kind": "growth at 0.1 µM", "measured.result": "96.6%"}
{"test.smiles": "O=C(CSc1nnc(-c2cccnc2SCc2ccccc2)o1)Nc1nc(Cl)cc(Cl)n1", "readout.kind": "growth at 0.1 µM", "measured.result": "102%"}

Now consider a different molecule.
Please supply the value of reported growth at 0.1 µM for the item COc1cc(OC)nc(NC(=O)CSc2nnc(-c3cccnc3SCc3ccccc3)o2)n1 103%

###

# Tested on: ACHN
# procedure.details: Antitumor activity against human ACHN cells assessed as cell growth at 0.1 uM
# Assay type: functional
# details: read-out: Activity
readout.kind: growth at 0.1 µM (%)
Respond numerically; units are % and should not be typed.

# annotated cases, reported growth at 0.1 µM shown
{"test.smiles": "CN1CCN(C(=O)CSc2nnc(-c3cccnc3SCc3ccccc3)o2)CC1", "growth at 0.1 µM, %": 80.8}
{"test.smiles": "c1ccc(CSc2ncccc2-c2nnc(SCCN3CCOCC3)o2)cc1", "growth at 0.1 µM, %": 124}
{"test.smiles": "Cc1ccc2sc(-c3ccc(NC(=O)CSc4nnc(-c5cccnc5SCc5ccccc5)o4)cc3)nc2c1", "growth at 0.1 µM, %": 90.8}
{"test.smiles": "COc1cc(OC)nc(NC(=O)CSc2nnc(-c3cccnc3SCc3ccccc3)o2)n1", "growth at 0.1 µM, %": 107}
{"test.smiles": "Cc1cnc(NC(=O)CSc2nnc(-c3cccnc3SCc3ccccc3)o2)s1", "growth at 0.1 µM, %": 66.5}

Now consider a different molecule.
Please supply the value of reported growth at 0.1 µM for the item O=C(CSc1nnc(-c2cccnc2SCc2ccccc2)o1)Nc1nc(Cl)cc(Cl)n1 103

###

# Test system: SNB-75
# procedure.details: Antitumor activity against human SNB75 cells assessed as cell growth at 0.1 uM
# Assay type: functional
# details: read-out: Activity
growth at 0.1 µM values, listed per item
Respond numerically; units are % and should not be typed.

Please supply the value of reported growth at 0.1 µM for the item CN1CCN(C(=O)CSc2nnc(-c3cccnc3SCc3ccccc3)o2)CC1 83

Please supply the value of reported growth at 0.1 µM for the item c1ccc(CSc2ncccc2-c2nnc(SCCN3CCOCC3)o2)cc1 79.6

Please supply the value of reported growth at 0.1 µM for the item COc1cc(OC)nc(NC(=O)CSc2nnc(-c3cccnc3SCc3ccccc3)o2)n1 92.5

Please supply the value of reported growth at 0.1 µM for the item Cc1ccc2sc(-c3ccc(NC(=O)CSc4nnc(-c5cccnc5SCc5ccccc5)o4)cc3)nc2c1 95.6

Please supply the value of reported growth at 0.1 µM for the item O=C(CSc1nnc(-c2cccnc2SCc2ccccc2)o1)Nc1nc(Cl)cc(Cl)n1 85.7

Please supply the value of reported growth at 0.1 µM for the item Cc1cnc(NC(=O)CSc2nnc(-c3cccnc3SCc3ccccc3)o2)s1 70.6

###

# System: TK-10
# procedure.details: Antitumor activity against human TK10 cells assessed as cell growth at 0.1 uM
# Type: functional
# details: read-out: Activity
readout.kind: growth at 0.1 µM

# annotated cases, reported growth at 0.1 µM shown
{"test.smiles": "CN1CCN(C(=O)CSc2nnc(-c3cccnc3SCc3ccccc3)o2)CC1", "growth at 0.1 µM": "115%"}
{"test.smiles": "Cc1ccc2sc(-c3ccc(NC(=O)CSc4nnc(-c5cccnc5SCc5ccccc5)o4)cc3)nc2c1", "growth at 0.1 µM": "118%"}
{"test.smiles": "O=C(CSc1nnc(-c2cccnc2SCc2ccccc2)o1)Nc1nc(Cl)cc(Cl)n1", "growth at 0.1 µM": "109%"}
{"test.smiles": "Cc1cnc(NC(=O)CSc2nnc(-c3cccnc3SCc3ccccc3)o2)s1", "growth at 0.1 µM": "82.3%"}
{"test.smiles": "c1ccc(CSc2ncccc2-c2nnc(SCCN3CCOCC3)o2)cc1", "growth at 0.1 µM": "118%"}

Now consider a different compound.
Please supply the value of reported growth at 0.1 µM for the item COc1cc(OC)nc(NC(=O)CSc2nnc(-c3cccnc3SCc3ccccc3)o2)n1 98.6%

###

MIC values, listed per item
# Tested on: Escherichia coli
# procedure.details: Antimicrobial activity against Escherichia coli MTCC 443 assessed as growth inhibition measured after overnight incubation by broth dilution method
# Assay type: functional
Respond numerically; units are µg/mL and should not be typed.

# annotated cases, reported MIC shown
{"compound": "N#CSc1ccc2nc(NC(=O)CSc3nnc(-c4cccnc4SCc4ccccc4)o3)sc2c1", "readout.kind": "MIC", "measured.result": 250}
{"compound": "COc1cc(OC)nc(NC(=O)CCl)n1", "readout.kind": "MIC", "measured.result": 100}
{"compound": "Cc1cnc(NC(=O)CSc2nnc(-c3cccnc3SCc3ccccc3)o2)s1", "readout.kind": "MIC", "measured.result": 200}

Please supply the value of reported MIC for the item CC1(C)S[C@@H]2[C@H](NC(=O)[C@H](N)c3ccccc3)C(=O)N2[C@H]1C(=O)O 100

Please supply the value of reported MIC for the item CN1CCN(C(=O)CSc2nnc(-c3cccnc3SCc3ccccc3)o2)CC1 100

###

# System: SR
# procedure.details: Antitumor activity against human SR cells assessed as cell growth at 0.1 uM
# Assay type: functional
# details: read-out: Activity
readout.kind: growth at 0.1 µM (%)
Respond numerically; units are % and should not be typed.

# annotated cases, reported growth at 0.1 µM shown
{"test.smiles": "O=C(CSc1nnc(-c2cccnc2SCc2ccccc2)o1)Nc1nc(Cl)cc(Cl)n1", "target.system": "SR", "unit.of.measure": "%", "growth at 0.1 µM": 101}
{"test.smiles": "c1ccc(CSc2ncccc2-c2nnc(SCCN3CCOCC3)o2)cc1", "target.system": "SR", "unit.of.measure": "%", "growth at 0.1 µM": 104}
{"test.smiles": "COc1cc(OC)nc(NC(=O)CSc2nnc(-c3cccnc3SCc3ccccc3)o2)n1", "target.system": "SR", "unit.of.measure": "%", "growth at 0.1 µM": 96.2}

Please supply the value of reported growth at 0.1 µM for the item Cc1ccc2sc(-c3ccc(NC(=O)CSc4nnc(-c5cccnc5SCc5ccccc5)o4)cc3)nc2c1 82.6

Please supply the value of reported growth at 0.1 µM for the item Cc1cnc(NC(=O)CSc2nnc(-c3cccnc3SCc3ccccc3)o2)s1 67.9

Please supply the value of reported growth at 0.1 µM for the item CN1CCN(C(=O)CSc2nnc(-c3cccnc3SCc3ccccc3)o2)CC1 79.8

###

# Test system: SK-MEL-5
# procedure.details: Antitumor activity against human SK-MEL-5 cells assessed as cell growth at 0.1 uM
# Format: functional
# details: read-out: Activity
Each record is given Met if its reported growth at 0.1 µM is strictly below 90%. Records at or above 90% are given Not met.

Some solved entries appear below for comparison.
{"test.smiles": "c1ccc(CSc2ncccc2-c2nnc(SCCN3CCOCC3)o2)cc1", "category.label": "Not met"}
{"test.smiles": "CN1CCN(C(=O)CSc2nnc(-c3cccnc3SCc3ccccc3)o2)CC1", "category.label": "Met"}
{"test.smiles": "O=C(CSc1nnc(-c2cccnc2SCc2ccccc2)o1)Nc1nc(Cl)cc(Cl)n1", "category.label": "Not met"}
{"test.smiles": "Cc1cnc(NC(=O)CSc2nnc(-c3cccnc3SCc3ccccc3)o2)s1", "category.label": "Met"}

We now examine a further compound.
Does this compound meet the criterion growth at 0.1 µM < 90%? COc1cc(OC)nc(NC(=O)CSc2nnc(-c3cccnc3SCc3ccccc3)o2)n1 Not met

###

# System: SF-295
# procedure.details: Antitumor activity against human SF295 cells assessed as cell growth at 0.1 uM
# Type: functional
# details: read-out: Activity
readout.kind: growth at 0.1 µM (%)
Respond numerically; units are % and should not be typed.

Please supply the value of reported growth at 0.1 µM for the item CN1CCN(C(=O)CSc2nnc(-c3cccnc3SCc3ccccc3)o2)CC1 89.6

Please supply the value of reported growth at 0.1 µM for the item Cc1ccc2sc(-c3ccc(NC(=O)CSc4nnc(-c5cccnc5SCc5ccccc5)o4)cc3)nc2c1 107

Please supply the value of reported growth at 0.1 µM for the item O=C(CSc1nnc(-c2cccnc2SCc2ccccc2)o1)Nc1nc(Cl)cc(Cl)n1 96.8

Please supply the value of reported growth at 0.1 µM for the item Cc1cnc(NC(=O)CSc2nnc(-c3cccnc3SCc3ccccc3)o2)s1 90.1

Please supply the value of reported growth at 0.1 µM for the item COc1cc(OC)nc(NC(=O)CSc2nnc(-c3cccnc3SCc3ccccc3)o2)n1 97.1

Please supply the value of reported growth at 0.1 µM for the item c1ccc(CSc2ncccc2-c2nnc(SCCN3CCOCC3)o2)cc1 106
